In this section we review reported remaining activity at 100 µM values for a set of compounds.
biological target: caspase-1 (Homo sapiens, UniProt P29466); test: Caspase-1 inhibition assay, cleavage of fluorogenic substrate YVAD-AFC; type: biochemical; details: read-out: Enzyme activity (% at 100 μM)
Sequence (P29466 120-297 limits assumed): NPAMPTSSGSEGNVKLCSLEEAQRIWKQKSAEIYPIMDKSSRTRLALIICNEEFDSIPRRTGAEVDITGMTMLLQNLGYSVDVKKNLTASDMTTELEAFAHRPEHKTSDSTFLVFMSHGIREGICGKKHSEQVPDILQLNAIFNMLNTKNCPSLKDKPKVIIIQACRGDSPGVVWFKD
Sequence (P29466 317-404 limits assumed): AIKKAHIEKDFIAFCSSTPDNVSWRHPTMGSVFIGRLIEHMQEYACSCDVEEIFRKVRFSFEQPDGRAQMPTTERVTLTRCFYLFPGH

compound="CC(NCC(O)CC(=O)O)c1nnnn1CCCC(=O)N1CCc2ccccc2C1 (stereo not drawn) [5aa]" reported_value="> 96.7%"
compound="O=C(O)CC(O)CNC(c1ccccc1)c1nnnn1CCCC(=O)NCc1ccccc1 (stereo not drawn) [5be]" reported_value="> 96.7%"

Now let's try a different one.
Lookup: I would be grateful if you could share the reported remaining activity at 100 µM for CC(NCC(O)CC(=O)O)c1nnnn1CCCC(=O)NCc1ccccc1 (stereo not drawn) [5ba] .
Found: > 96.7%
